Origin of values: the supplement of paper PMC8617591

Test system: Mycobacterium tuberculosis Erdman (autoluminescent)
Experiment: Einf, fitted maximum growth inhibition of combination (fraction); higher = stronger maximal inhibition
Details: in vitro model: valerate; time point: constant (~7 days, model-specific)

COMPOUND	TARGET_UNDER_TEST	Einf
COc1nc2ccc(Br)cc2cc1[C@@H](c1ccccc1)[C@@](O)(CCN(C)C)c1cccc2ccccc12 [bedaquiline] + O=[N+]([O-])c1cn2c(n1)OC[C@@H](OCc1ccc(OC(F)(F)F)cc1)C2 [pretomanid]	Mycobacterium tuberculosis Erdman (autoluminescent)	0.935
CC(=O)NC[C@H]1CN(c2ccc(N3CCOCC3)c(F)c2)C(=O)O1 [linezolid] + COc1c(N2C[C@@H]3CCCN[C@@H]3C2)c(F)cc2c(=O)c(C(=O)O)cn(C3CC3)c12 [moxifloxacin]	Mycobacterium tuberculosis Erdman (autoluminescent)	0.856
COc1nc2ccc(Br)cc2cc1[C@@H](c1ccccc1)[C@@](O)(CCN(C)C)c1cccc2ccccc12 [bedaquiline] + COc1c(N2C[C@@H]3CCCN[C@@H]3C2)c(F)cc2c(=O)c(C(=O)O)cn(C3CC3)c12 [moxifloxacin]	Mycobacterium tuberculosis Erdman (autoluminescent)	0.911
O=[N+]([O-])c1cn2c(n1)OC[C@@H](OCc1ccc(OC(F)(F)F)cc1)C2 [pretomanid] + CO[C@H]1/C=C/O[C@@]2(C)Oc3c(C)c(O)c4c(O)c(c(/C=N/N5CCN(C6CCCC6)CC5)c(O)c4c3C2=O)NC(=O)/C(C)=C\C=C\[C@H](C)[C@H](O)[C@@H](C)[C@@H](O)[C@@H](C)[C@H](OC(C)=O)[C@@H]1C	Mycobacterium tuberculosis Erdman (autoluminescent)	0.892
COc1c(N2C[C@@H]3CCCN[C@@H]3C2)c(F)cc2c(=O)c(C(=O)O)cn(C3CC3)c12 [moxifloxacin] + NC(=O)c1cnccn1 [pyrazinamide]	Mycobacterium tuberculosis Erdman (autoluminescent)	0.834
NNC(=O)c1ccncc1 [isoniazid] + O=[N+]([O-])c1cn2c(n1)OC[C@@H](OCc1ccc(OC(F)(F)F)cc1)C2 [pretomanid]	Mycobacterium tuberculosis Erdman (autoluminescent)	0.884
NC(=O)c1cnccn1 [pyrazinamide] + CO[C@H]1/C=C/O[C@@]2(C)Oc3c(C)c(O)c4c(O)c(c(/C=N/N5CCN(C6CCCC6)CC5)c(O)c4c3C2=O)NC(=O)/C(C)=C\C=C\[C@H](C)[C@H](O)[C@@H](C)[C@@H](O)[C@@H](C)[C@H](OC(C)=O)[C@@H]1C	Mycobacterium tuberculosis Erdman (autoluminescent)	0.684
CC[C@@H](CO)NCCN[C@@H](CC)CO [ethambutol] + CO[C@H]1/C=C/O[C@@]2(C)Oc3c(C)c(O)c4c(O)c(c(/C=N/N5CCN(C6CCCC6)CC5)c(O)c4c3C2=O)NC(=O)/C(C)=C\C=C\[C@H](C)[C@H](O)[C@@H](C)[C@@H](O)[C@@H](C)[C@H](OC(C)=O)[C@@H]1C [rifapentine]	Mycobacterium tuberculosis Erdman (autoluminescent)	0.874
